B1: ZNF232 (parent)
chain: FPKSEQVYLHFLSVVTEDGPEPKD

variants of: B1; assay: protein stability index of a GFP-peptide fusion (GPS, HEK-293T) (PSI 1-6); higher = more stable; conditions: c terminus: a fixed tail appended;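 note: lentivirally expressed fusions sorted by FACS into six bins by GFP to DsRed ratio, PSI derived from sequencing read proportions per bin multiplied by bin number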
So basically: protein stability index at 3 or higher? That is y. Lower than 3? That is n.

mutation.code: V14S
answer.label: n
//
mutation.code: E21F
answer.label: y
//
mutation.code: E17A
answer.label: y
//
mutation.code: P2G
answer.label: n
//
mutation.code: E21H
answer.label: n
//
mutation.code: F1R
answer.label: y
//
mutation.code: K23C
answer.label: n
//
mutation.code: D24A
answer.label: n
//
mutation.code: T16Q
answer.label: n
//
mutation.code: E21I
answer.label: n
//
mutation.code: S4K
answer.label: n
//
mutation.code: L12E
answer.label: y
//
mutation.code: G19L
answer.label: n
//
mutation.code: E17L
answer.label: n
//
mutation.code: V7A
answer.label: n
//
mutation.code: S4W
answer.label: n
//
mutation.code: H10Q
answer.label: n
//
mutation.code: V15E
answer.label: y
//
mutation.code: S13M
answer.label: n
//
mutation.code: T16A
answer.label: n
//
mutation.code: E21K
answer.label: n
//
mutation.code: S4T
answer.label: n
//
mutation.code: V14G
answer.label: n
//
mutation.code: V7F
answer.label: n
//
mutation.code: V7Y
answer.label: n
//
mutation.code: L12W
answer.label: n
//
mutation.code: Q6H
answer.label: n
//
mutation.code: K23S
answer.label: n
//
mutation.code: F1L
answer.label: y
//
mutation.code: D24N
answer.label: n
//
mutation.code: V7D
answer.label: n
//
mutation.code: V7N
answer.label: n
//
mutation.code: F1N
answer.label: y
//
mutation.code: E17S
answer.label: n
//
mutation.code: V7C
answer.label: n
//
mutation.code: P2F
answer.label: n
//
mutation.code: D24P
answer.label: n
//
mutation.code: K3P
answer.label: n
//
mutation.code: P22D
answer.label: y
//
mutation.code: E17I
answer.label: n
//
mutation.code: P2L
answer.label: n
//
mutation.code: S4Y
answer.label: y
//
mutation.code: P2Q
answer.label: n
//
mutation.code: L9V
answer.label: n
//
mutation.code: L12K
answer.label: y
//
mutation.code: F11K
answer.label: y
//
mutation.code: E21P
answer.label: n
//
mutation.code: V7S
answer.label: n
//
mutation.code: D18H
answer.label: n
//
mutation.code: S13D
answer.label: y
//
mutation.code: Q6N
answer.label: n
//
mutation.code: F1S
answer.label: y
//
mutation.code: V7I
answer.label: n
//
mutation.code: V7H
answer.label: n
//
mutation.code: H10K
answer.label: n
//
mutation.code: F1V
answer.label: y
//
mutation.code: F11L
answer.label: n
//
mutation.code: G19C
answer.label: n
//
mutation.code: L9T
answer.label: n
//
mutation.code: K3T
answer.label: n
